Would you mind telling me the reported Cynomolgus Monkey IL-33 Binding Amount (RU) of each entry?
# tgt: T1, 6His-AviTag-linked cynomolgus monkey IL-33 (residues 112 to 269) (cynomolgus monkey, UniProt O95760 112-269 (human entry), biotin on the AviTag portion (BirA) in the SPR of Example 7; used without biotinylation in Example 10)
# T1 construct: GenBank EHH57404 printed; also called cynomolgus monkey IL-33 protein; mature cynomolgus monkey IL-33
# T1 chain: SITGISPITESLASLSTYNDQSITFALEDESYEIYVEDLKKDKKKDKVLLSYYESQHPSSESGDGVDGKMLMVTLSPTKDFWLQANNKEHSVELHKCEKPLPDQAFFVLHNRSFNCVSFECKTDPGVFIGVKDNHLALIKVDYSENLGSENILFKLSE
# procedure_text: SPR, IL-33 on chip, Fab supernatant as analyte
Write it as a number; the unit RU goes unstated.

Which value of Cynomolgus Monkey IL-33 Binding Amount (RU) has been reported for A25-2D01 (Fab) (Fab, V domains shown, Fab secreted by E. coli, tested as culture supernatant; also called V9) VH: EVQLLESGGGLVQPGGSLRLSCAASGFTFSNYYMHWVRQAPGKGLEWVSSISARSSYIYYADSVKGRFTISRDNSKNTLYLQMNSLRAEDTAVYYCARLATRNNAFDIWGQGTLVTVSS VL: QSVLTQPPSASGTPGQRVTISCSGSSSNIGRNAVNWYQQLPGTAPKLLIYASNMRVIGVPDRFSGSKSGTSASLAISGLRSEDEADYYCAAWDDSQKAWVFGGGTKLTVL in the records? 832

Can you look up the measured Cynomolgus Monkey IL-33 Binding Amount (RU) of A00-0070 (Fab) (Fab, V domains shown, parental clone as Fab; also called V29; parental clone (Fab)) VH: EVQLLESGGGLVQPGGSLRLSCAASGFTFSDYYMNWVRQAPGKGLEWVSSISSSSSYIYYADSVKGRFTISRDNSKNTLYLQMNSLRAEDTAVYYCARDIGGMDVWGQGTLVTVSS VL: QSVLTQPPSASGTPGQRVTISCTGSSSNIGAVYNVHWYQQLPGTAPKLLIYRNNQRPSGVPDRFSGSKSGTSASLAISGLRSEDEADYYCQSYDSSRWVFGGGTKLTVL for me? 270

What value of measured Cynomolgus Monkey IL-33 Binding Amount (RU) is listed for A28-2C06 (Fab) (Fab, V domains shown, Fab secreted by E. coli, tested as culture supernatant; also called V25) VH: EVQLLESGGGLVQPGGSLRLSCAASGFTFSNYYMHWVRQAPGKGLEWVSSISARSSYIYYAGSVKGRFTISRDNSKNTLYLQMNSLRAEDTAVYYCARLGTRRVAFDIWGQGTLVTVSS VL: QSVLTQPPSASGTPGQRVTISCSGSSSNIGRNAVNWYQQLPGTAPKLLIYASNMRGMGVPDRFSGSKSGTSASLAISGLRSEDEADYYCSAWDDSQKVVVFGGGTKLTVL ? 134

// Cynomolgus Monkey IL-33 Binding Amount (RU) lookup, key: A28-1C08 (Fab) (Fab, V domains shown, Fab secreted by E. coli, tested as culture supernatant; also called V23) VH: EVQLLESGGGLVQPGGSLRLSCAASGFTFSRYYMHWVRQAPGKGLEWVSSISARSSYIYYADSVKGRFTISRDNSKNTLYLQMNSLRAEDTAVYYCARLATRRDAFDIWGQGTLVTVSS VL: QSVLTQPPSASGTPGQRVTISCSGSSSNIGRNAVSWYQQLPGTAPKLLIYASNMRRLGVPDRFSGSKSGTSASLAISGLRSEDEADYYCWAWDDSQKAVVFGGGTKLTVL 144

Quick check: Cynomolgus Monkey IL-33 Binding Amount (RU) of A12-1H04 (Fab) (Fab, V domains shown, Fab secreted by E. coli, tested as culture supernatant; also called V3) VH: EVQLLESGGGLVQPGGSLRLSCAASGFTFSDYYMDWVRQAPGKGLEWVSSISRYSGYVYYADSVKGRFTISRDNSKNTLYLQMNSLRAEDTAVYYCARDIGGMDVWGQGTLVTVSS VL: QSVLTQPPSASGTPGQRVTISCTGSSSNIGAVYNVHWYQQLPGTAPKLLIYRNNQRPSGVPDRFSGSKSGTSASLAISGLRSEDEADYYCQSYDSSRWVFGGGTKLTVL ? 131
